# experimentalSystem: human ERG potassium channel (hERG) (Homo sapiens, UniProt Q12809)
# Construct: expressed in transfected cells; host or cells: HEK293, stably transfected, tetracycline-inducible promoter
# Sequence (Q12809 whole entry): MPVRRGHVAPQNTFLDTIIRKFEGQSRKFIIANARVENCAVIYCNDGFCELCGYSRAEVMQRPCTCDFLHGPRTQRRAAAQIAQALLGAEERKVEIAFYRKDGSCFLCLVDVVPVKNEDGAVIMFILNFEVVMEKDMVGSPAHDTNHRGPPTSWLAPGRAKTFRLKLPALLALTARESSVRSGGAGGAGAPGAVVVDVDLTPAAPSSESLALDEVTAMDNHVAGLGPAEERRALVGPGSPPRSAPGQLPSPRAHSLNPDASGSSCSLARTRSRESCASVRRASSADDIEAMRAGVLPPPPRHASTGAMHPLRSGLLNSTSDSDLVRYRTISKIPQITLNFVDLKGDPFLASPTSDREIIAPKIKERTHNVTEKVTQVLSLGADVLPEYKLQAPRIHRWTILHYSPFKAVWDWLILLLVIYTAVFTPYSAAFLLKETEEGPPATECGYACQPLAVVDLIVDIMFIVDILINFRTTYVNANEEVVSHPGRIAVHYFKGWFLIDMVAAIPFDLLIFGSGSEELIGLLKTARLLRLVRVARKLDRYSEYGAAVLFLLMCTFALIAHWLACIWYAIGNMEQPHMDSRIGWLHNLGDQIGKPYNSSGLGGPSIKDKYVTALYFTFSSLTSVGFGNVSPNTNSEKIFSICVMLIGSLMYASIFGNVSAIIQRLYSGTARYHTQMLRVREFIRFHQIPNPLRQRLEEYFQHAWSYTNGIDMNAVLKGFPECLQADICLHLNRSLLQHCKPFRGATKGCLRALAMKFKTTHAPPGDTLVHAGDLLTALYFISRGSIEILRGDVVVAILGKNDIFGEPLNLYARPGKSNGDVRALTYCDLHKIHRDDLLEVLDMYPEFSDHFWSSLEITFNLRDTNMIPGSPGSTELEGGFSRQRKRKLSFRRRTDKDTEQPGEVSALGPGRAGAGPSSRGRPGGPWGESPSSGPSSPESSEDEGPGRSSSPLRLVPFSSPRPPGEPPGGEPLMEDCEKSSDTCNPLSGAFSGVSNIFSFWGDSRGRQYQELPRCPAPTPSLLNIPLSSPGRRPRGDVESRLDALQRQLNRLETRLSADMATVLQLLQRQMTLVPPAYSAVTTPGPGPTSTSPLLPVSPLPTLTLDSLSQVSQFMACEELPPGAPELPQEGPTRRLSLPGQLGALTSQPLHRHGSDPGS
# assaySummary: hERG channel tail current recording using in vitro Rapid ICE (automated patch-clamp, QPatch HTX)
# Format: cell-based
# measurementSetup: Table 26
pIC50: −log10 of the molar value.

molecule	pIC50
O=C(COc1ccc(Cl)c(F)c1)N[C@H]1CC[C@H](c2nnc(-c3ccc(Cl)cc3)o2)NC1	6.00 to 9.00
Cc1ccc(OCC(=O)N[C@H]2CC[C@H](c3nnc(OCCOC(F)(F)F)o3)NC2)cc1C	< 5.30
CC(Oc1ccc(Cl)cc1)C(=O)N[C@H]1CC[C@H](c2nnc(-c3ccc(C(F)(F)F)cc3)o2)NC1 (stereo partly drawn)	6.00 to 9.00
O=C(COc1ccc(Cl)c(F)c1)N[C@H]1CC[C@H](c2nnc(OCC3CC3(F)F)o2)NC1 (stereo partly drawn)	5.30 to 6.00
O=C(COc1ccc(Cl)c(F)c1)N[C@H]1CC[C@H](c2nnc(OC3CCC(F)(F)C3)o2)NC1 (stereo partly drawn)	5.30 to 6.00
O=C(COc1ccc(Cl)c(F)c1)N[C@H]1CC[C@H](c2nnc(C3CC(OC4CC4)C3)o2)NC1 (stereo partly drawn)	< 5.30
O=C(COc1ccc(Cl)c(F)c1)N[C@H]1CC[C@H](c2nnc(OCCOC3CCC3)o2)NC1	< 5.30
O=C(COc1ccc(Cl)c(F)c1)N[C@H]1CC[C@H](c2nnc(-c3ccc(Cl)c(F)c3)o2)NC1	6.00 to 9.00
O=C(COc1ccc(Cl)c(F)c1)N[C@H]1CC[C@H](c2noc([C@H]3C[C@@H](OC(F)(F)F)C3)n2)NC1	5.30 to 6.00
CN1C[C@H](NC(=O)COc2ccc(Cl)c(F)c2)CC[C@H]1c1nnc(-c2ccc(Cl)cc2)o1	6.00 to 9.00
O=C(COc1ccc(Cl)c(F)c1)N[C@H]1CC[C@H](c2nnc(-c3ccc(C(F)(F)F)nc3)o2)NC1	6.00 to 9.00
CCCCCOc1nnc([C@H]2CC[C@H](NC(=O)COc3ccc(Cl)c(F)c3)CN2)o1	5.30 to 6.00
CCOCCOc1nnc([C@H]2CC[C@H](NC(=O)COc3ccc(Cl)c(F)c3)CN2)o1	< 5.30
O=C(COc1ccc(Cl)c(F)c1)N[C@H]1CC[C@H](c2nnc(-c3ccc(Cl)cn3)o2)NC1	5.30 to 6.00
O=C(COc1ccc(Cl)c(F)c1)N[C@H]1CC[C@H](c2nnc(OCCC(F)(F)F)o2)NC1	5.30 to 6.00

----------
Each entry below carries its reported solubility.
# assaySummary: Thermodynamic (Equilibrium) solubility in selected buffer
# Type: physicochemical
# measurementSetup: phosphate buffer 50 mM, aqueous buffer, thermodynamic from solid; pH 7.4; Table 25; read-out: Solubility (μg/mL) pH 7.4

smilesEntry	solubility, µg/mL
CC(F)(F)CCCOc1nnc([C@H]2CC[C@H](NC(=O)COc3ccc(Cl)c(F)c3)CN2)o1	62
Cc1ccc(-c2nnc([C@H]3CC[C@H](NC(=O)COc4ccc(Cl)c(F)c4)CN3)o2)cn1	153
O=C(COc1ccc(Cl)c(F)c1)N[C@H]1CC[C@H](c2nnc(N3CC(C(F)(F)F)C3)o2)NC1	173
O=C(COc1ccc(Cl)c(F)c1)N[C@H]1CC[C@H](c2nnc(N3CC(OC4CC4)C3)o2)NC1	230

----------
# assaySummary: Thermodynamic (Equilibrium) solubility in selected buffer
# Assay type: physicochemical
# measurementSetup: phosphate buffer 50 mM, aqueous buffer, thermodynamic from solid; pH 2.0; Table 25; read-out: Solubility (μg/mL) pH 2.0
Recorded solubility by entry

molecule	solubility (µg/mL)
Cn1nc(-c2nnc([C@H]3CC[C@H](NC(=O)COc4ccc(Cl)c(F)c4)CN3)o2)cc1Cl [Example 51]	945
O=C(COc1ccc(Cl)c(C(F)F)c1)N[C@H]1CC[C@H](c2nnc(OCCOC(F)(F)F)o2)NC1 [Example 11]	617
Cc1ccc(-c2nnc([C@H]3CC[C@H](NC(=O)COc4ccc(Cl)c(F)c4)CN3)o2)cn1 [Example 34]	994
O=C(COc1ccc(Cl)c(F)c1)N[C@H]1CC[C@H](c2nnc(N3CC(OC4CC4)C3)o2)NC1 [Example 95]	970
O=C(COc1ccc(C(F)(F)F)cc1)N[C@H]1CC[C@H](c2nnc(OCCOC(F)(F)F)o2)NC1 [Example 112]	812
CC(F)(F)CCCOc1nnc([C@H]2CC[C@H](NC(=O)COc3ccc(Cl)c(F)c3)CN2)o1 [Example 84]	717
O=C(COc1ccc(Cl)c(F)c1)N[C@H]1CC[C@H](c2nnc(N3CC[C@@H](OC(F)(F)F)C3)o2)NC1 (single isomer, unassigned) [Example 111]	911
O=C(COc1ccc(Cl)c(F)c1)N[C@H]1CC[C@H](c2nnc(-c3ccc(C(F)(F)F)nc3)o2)NC1 [Example 52]	839
O=C(COc1ccc(Cl)c(Cl)c1)N[C@H]1CC[C@H](c2nnc(OCCOC(F)(F)F)o2)NC1 [Example 85]	918
O=C(COc1ccc(Cl)c(F)c1)N[C@H]1CC[C@H](c2nnc(OCCOC(F)(F)F)o2)NC1 [Example 77]	810
Cc1cc(OCC(=O)N[C@H]2CC[C@H](c3nnc(OCCOC(F)(F)F)o3)NC2)ccc1Cl [Example 12]	651
O=C(COc1ccc(Cl)c(Cl)c1)N[C@H]1CC[C@H](c2nnc([C@H]3C[C@@H](OC(F)F)C3)o2)NC1 [Example 60]	886
O=C(COc1ccc(Cl)c(F)c1)N[C@H]1CC[C@H](c2nnc(OCCOC(F)F)o2)NC1 [Example 75]	713
O=C(COc1ccc(Cl)c(F)c1)N[C@H]1CC[C@H](c2nnc(N3CC[C@H](OC(F)(F)F)C3)o2)NC1 (single isomer, unassigned) [Example 110]	982

----------
# assaySummary: Thermodynamic (Equilibrium) solubility in selected buffer
# Type: physicochemical
# measurementSetup: acetate buffer 50 mM, aqueous buffer, thermodynamic from solid; pH 5; Table 24; read-out: Solubility (μg/mL) pH 5
Each entry below lists one item and its recorded solubility value.
propertyMeasured: solubility (µg/mL)

compound	qualifierOperator	observed
O=C(COc1ccc(Cl)c(F)c1)N[C@H]1CC[C@H](c2nnc([C@H]3C[C@@H](OC(F)(F)F)C3)o2)NC1	=	78
O=C(COc1ccc(Cl)c(F)c1)N[C@@H]1CC[C@@H](c2nnc(COC(F)(F)F)o2)OC1 [WO201904 6779 Ex 30, reference compound]	=	3
O=C(COc1ccc(Cl)c(F)c1)N[C@@H]1CC[C@@H](c2nnc([C@H]3C[C@@H](OC(F)(F)F)C3)o2)OC1 [WO201904 6779 Ex 1, reference compound]	<	1
O=C(COc1ccc(Cl)c(F)c1)N[C@H]1CC[C@H](c2nnc(COC(F)(F)F)o2)NC1	=	156

----------
# experimentalSystem: human ERG potassium channel (hERG) (Homo sapiens)
# Construct: expressed in transfected cells; host or cells: HEK293, stably transfected, tetracycline-inducible promoter
# assaySummary: hERG channel tail current recording using in vitro Rapid ICE (automated patch-clamp, QPatch HTX)
# Type: cell-based
# measurementSetup: Table 24

compound	IC50
O=C(COc1ccc(Cl)c(F)c1)N[C@H]1CC[C@H](c2nnc(COC(F)(F)F)o2)NC1 [Example 61]	1000 to 5000 nM
O=C(COc1ccc(Cl)c(F)c1)N[C@@H]1CC[C@@H](c2nnc([C@H]3C[C@@H](OC(F)(F)F)C3)o2)OC1 [WO201904 6779 Ex 1, reference compound]	1000 to 5000 nM
O=C(COc1ccc(Cl)c(F)c1)N[C@H]1CC[C@H](c2nnc([C@H]3C[C@@H](OC(F)(F)F)C3)o2)NC1 [Example 50]	1000 to 5000 nM
O=C(COc1ccc(Cl)c(F)c1)N[C@@H]1CC[C@@H](c2nnc(COC(F)(F)F)o2)OC1 [WO201904 6779 Ex 30, reference compound]	1 to 1000 nM

----------
Here, each record is paired with measured IC50 data.
# experimentalSystem: human ERG potassium channel (hERG) (Homo sapiens, UniProt Q12809)
# Construct: expressed in transfected cells; host or cells: HEK293, stably transfected, tetracycline-inducible promoter
# assaySummary: hERG channel tail current recording using in vitro Rapid ICE (automated patch-clamp, QPatch HTX)
# Type: cell-based
# measurementSetup: Table 26
propertyMeasured: IC50

compound	observed
N#Cc1cc(OCC(=O)N[C@H]2CC[C@H](c3nnc(OCCOC(F)(F)F)o3)NC2)ccc1Cl	> 5 µM
O=C(COc1ccc(Cl)c(F)c1)N[C@H]1CC[C@H](c2nnc(C3CN(CC(F)(F)F)C3)o2)NC1	> 5 µM
CC(F)(F)CCOc1nnc([C@H]2CC[C@H](NC(=O)COc3ccc(Cl)c(F)c3)CN2)o1	1 to 5 µM
O=C(COc1ccc(Cl)c(F)c1)N[C@@H]1CC[C@@H](c2nnc(OCCOC(F)(F)F)o2)NC1	> 5 µM
CC(F)(F)CCCOc1nnc([C@H]2CC[C@H](NC(=O)COc3ccc(Cl)c(F)c3)CN2)o1	1 to 5 µM
O=C(COc1ccc(Cl)c(F)c1)N[C@H]1CC[C@H](c2nnc(N3CC[C@H](OC(F)(F)F)C3)o2)NC1 (single isomer, unassigned)	> 5 µM
O=C(COc1ccc(Cl)c(F)c1)N[C@H]1CC[C@H](c2nnc(N3CC(OC4CC4)C3)o2)NC1	1 to 5 µM
O=C(COc1ccc(Cl)c(F)c1)N[C@H]1CC[C@H](c2nnc(OCCO[C@@H]3CC3(F)F)o2)NC1 (single isomer, unassigned)	1 to 5 µM
O=C(COc1ccc(Cl)c(F)c1)N[C@H]1CC[C@H](c2nnc(OCCOC(F)F)o2)NC1	1 to 5 µM
O=C(COc1ccc(Cl)c(F)c1)N[C@H]1CC[C@H](c2nnc(N3CC(OC(F)(F)F)C3)o2)NC1	1 to 5 µM
O=C(COc1ccc(Cl)c(F)c1)N[C@H]1CC[C@H](c2nnc(N3CC(C(F)(F)F)C3)o2)NC1	> 5 µM
O=C(COc1ccc(Cl)c(F)c1)N[C@H]1CC[C@H](c2nnc(COC(F)(F)F)o2)NC1	1 to 5 µM
O=C(COc1ccc(C(F)F)c(Cl)c1)N[C@H]1CC[C@H](c2nnc(OCCOC(F)(F)F)o2)NC1	1 to 5 µM
O=C(COc1ccc(Cl)c(F)c1)N[C@H]1CC[C@H](c2nnc(OCCOC3CC3(F)F)o2)NC1 (stereo partly shown)	1 to 5 µM
O=C(COc1ccc(Cl)c(Cl)c1)N[C@H]1CC[C@H](c2nnc(OCCOC(F)(F)F)o2)NC1	1 to 5 µM
O=C(COc1ccc(Cl)c(F)c1)N[C@H]1CC[C@H](c2nnc(OCC3CCC3(F)F)o2)NC1 (stereo partly shown)	1 to 5 µM
COc1cc(OCC(=O)N[C@H]2CC[C@H](c3nnc(OCCOC(F)(F)F)o3)NC2)ccc1C(F)(F)F	> 5 µM
O=C(COc1ccc(Cl)c(F)c1)N[C@H]1CC[C@H](c2nnc(-c3ccc(Cl)cc3)o2)NC1=O (single isomer, unassigned)	0.001 to 1 µM
O=C(COc1ccc(Cl)c(F)c1)N[C@H]1CC[C@H](c2nnc(CCCOC(F)(F)F)o2)NC1	> 5 µM
O=C(COc1ccc(C(F)(F)F)nc1)N[C@H]1CC[C@H](c2nnc(OCCOC(F)(F)F)o2)NC1	> 5 µM
CC(CC(F)(F)F)Oc1nnc([C@H]2CC[C@H](NC(=O)COc3ccc(Cl)c(F)c3)CN2)o1 (stereo partly shown)	> 5 µM
O=C(COc1ccc(Cl)c(F)c1)N[C@@H]1CC[C@@H](c2nnc(N3CC(OC(F)(F)F)C3)o2)NC1	> 5 µM
CCN1C[C@@H](NC(=O)COc2ccc(Cl)c(F)c2)CC[C@@H]1c1nnc(-c2ccc(Cl)cc2)o1	0.001 to 1 µM
O=C(COc1ccc(Cl)c(F)c1)N[C@@H]1CC[C@@H](c2nnc(-c3ccc(Cl)cc3)o2)NC1=O (single isomer, unassigned)	0.001 to 1 µM
O=C(COc1ccc(Cl)c(F)c1)N[C@H]1CC[C@H](c2nnc(N3CC[C@@H](OC(F)(F)F)C3)o2)NC1 (single isomer, unassigned)	1 to 5 µM
CC(C)CCOc1nnc([C@H]2CC[C@H](NC(=O)COc3ccc(Cl)c(F)c3)CN2)o1	1 to 5 µM
O=C(COc1ccc(Cl)c(F)c1)N[C@H]1CC[C@H](c2nnc(OCC3CC3C(F)(F)F)o2)NC1 (stereo partly shown)	1 to 5 µM
CN1C[C@@H](NC(=O)COc2ccc(Cl)c(F)c2)CC[C@@H]1c1nnc(OCCOC(F)(F)F)o1	> 5 µM
